# TESTED_SYSTEM: CFTR (Homo sapiens)
# Construct: endogenous in cells; host or cells: T84 human colonic cells (ECACC)
# Sequence (P13569 whole entry): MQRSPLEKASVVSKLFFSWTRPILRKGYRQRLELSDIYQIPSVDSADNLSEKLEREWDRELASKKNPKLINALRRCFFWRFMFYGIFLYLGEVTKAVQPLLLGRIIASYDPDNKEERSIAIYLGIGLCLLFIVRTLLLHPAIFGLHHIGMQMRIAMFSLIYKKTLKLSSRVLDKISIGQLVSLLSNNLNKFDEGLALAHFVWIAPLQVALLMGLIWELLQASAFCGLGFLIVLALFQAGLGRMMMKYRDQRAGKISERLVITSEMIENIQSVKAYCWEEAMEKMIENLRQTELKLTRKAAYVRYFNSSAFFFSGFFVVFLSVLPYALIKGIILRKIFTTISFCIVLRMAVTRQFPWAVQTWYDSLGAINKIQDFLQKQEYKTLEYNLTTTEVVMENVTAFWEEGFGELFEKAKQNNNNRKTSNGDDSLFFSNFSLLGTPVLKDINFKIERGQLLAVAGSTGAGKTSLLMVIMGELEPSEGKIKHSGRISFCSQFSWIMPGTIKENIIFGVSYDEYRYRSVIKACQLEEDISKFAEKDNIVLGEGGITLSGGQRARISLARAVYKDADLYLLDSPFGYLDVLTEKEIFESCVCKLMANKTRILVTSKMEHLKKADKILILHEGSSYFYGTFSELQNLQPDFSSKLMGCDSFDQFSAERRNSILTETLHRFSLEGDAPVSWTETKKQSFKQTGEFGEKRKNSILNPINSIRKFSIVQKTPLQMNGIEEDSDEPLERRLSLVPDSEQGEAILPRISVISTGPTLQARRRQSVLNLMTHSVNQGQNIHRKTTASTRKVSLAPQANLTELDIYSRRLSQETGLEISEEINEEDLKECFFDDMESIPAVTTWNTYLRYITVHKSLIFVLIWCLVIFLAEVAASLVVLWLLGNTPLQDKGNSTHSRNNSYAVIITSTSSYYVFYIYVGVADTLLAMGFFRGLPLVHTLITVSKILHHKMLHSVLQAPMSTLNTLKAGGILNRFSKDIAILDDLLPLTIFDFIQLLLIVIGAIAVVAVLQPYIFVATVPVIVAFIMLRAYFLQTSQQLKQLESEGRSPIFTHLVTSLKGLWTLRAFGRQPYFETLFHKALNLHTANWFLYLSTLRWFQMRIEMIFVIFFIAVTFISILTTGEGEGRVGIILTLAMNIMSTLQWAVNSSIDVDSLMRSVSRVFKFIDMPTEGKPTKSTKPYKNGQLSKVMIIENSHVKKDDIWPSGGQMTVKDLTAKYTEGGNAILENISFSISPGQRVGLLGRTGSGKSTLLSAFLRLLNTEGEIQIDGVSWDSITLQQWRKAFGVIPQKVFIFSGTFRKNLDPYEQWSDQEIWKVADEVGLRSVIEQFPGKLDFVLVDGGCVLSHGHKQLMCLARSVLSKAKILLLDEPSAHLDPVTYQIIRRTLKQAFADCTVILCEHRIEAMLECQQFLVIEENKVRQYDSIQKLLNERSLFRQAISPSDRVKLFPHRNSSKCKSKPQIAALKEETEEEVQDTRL
# ASSAY_PROCEDURE: T84 assay (FLIPR membrane potential dye, forskolin/IBMX-stimulated CFTR channel activity)
# Assay type: cell-based
# CONDITIONS: oxadiazole-containing compounds (a series), average of at least 2 runs unless annotated n = 1, read-out: IC50
Provide the reported IC50 of each item.

Data point: O=C(c1nc(-c2cc(Br)c(O)c(Br)c2)no1)N1CCN(c2ccc(Cl)c(C(F)(F)F)c2)CC1 [4a] ; IC50 = 4.72 µM

// O=C(NCc1cc(C(F)(F)F)ccc1F)c1nc(-c2cc(Cl)c(O)c(Cl)c2)no1 [126a] : IC50 value = 23.4 µM

Quick note, IC50 for O=C(NCc1ccc(Oc2ccc(Cl)c(C(F)(F)F)c2)cc1)c1nc(-c2cc(Cl)c(O)c(Cl)c2)no1 [202a] landed at 23.3 µM

# IC50 of O=C(NCc1cccc(Oc2ccccc2)c1)c1nc(-c2cc(Cl)c(O)c(Cl)c2)no1 [145a] = 9.87 µM

The compound identified as O=C(NCc1ccc(Oc2ccc(OC(F)(F)F)cc2)cc1)c1nc(-c2cc(Cl)c(O)c(Cl)c2)no1 [181a] registered its IC50 at 18.7 µM

Just so you know, measured IC50 for C#CCN(Cc1cccc(C(F)(F)F)c1)C(=O)c1nc(-c2cc(Cl)c(O)c(Cl)c2)no1 [109a] came out at 5.31 µM

Lab note: measured IC50 of CN(Cc1ccc(C(F)(F)F)cc1)C(=O)c1noc(-c2cc(Cl)c(O)c(Cl)c2)n1 [87a] was 3.42 µM

For O=C(NCc1ccc(OCc2ccccc2)cc1)c1nc(-c2cc(Cl)c(O)c(Cl)c2)no1 [153a] the compound record lists IC50 as 2.99 µM

---

Record form. Attribute: IC50. Fill in for each entry.
# TESTED_SYSTEM: CHO-CFTR cell line (Homo sapiens, UniProt P13569)
# Construct: expressed in transfected cells; host or cells: CHO (CHO-CFTR cell line)
# Sequence (P13569 whole entry): as above
# ASSAY_PROCEDURE: CHO-CFTR assay (FLIPR assay, same conditions as the T84 assay)
# Format: cell-based
# CONDITIONS: imidazole and triazole-containing compounds
Give a bare numeral; the unit µM is implied.

Lab book: IC50 of O=C(NCc1ccc(Oc2cc(Cl)c(OCc3ccccc3)c(Cl)c2)cc1)c1ncn(-c2cc(Cl)c(O)c(Cl)c2)n1 [73i] noted as 17

Record summary for O=C(c1ncn(-c2cc(Cl)c(O)c(Cl)c2)n1)N(O)Cc1ccc(Oc2ccccc2)cc1 [131i] : reported IC50 = 7.45

Per the record, O=C(NCCC(c1ccccc1)c1ccccc1)c1ncn(-c2cc(Cl)c(O)c(Cl)c2)n1 [31i] has IC50 of 12.9

Input CC(C)(C)c1ccc(CNC(=O)c2ncn(-c3cc(Cl)c(O)c(Cl)c3)n2)cc1 [34i] . Output IC50: 4.72

// field: IC50; key: Oc1c(Cl)cc(-n2cnc(C(O)(c3ccc(F)c(F)c3)c3ccc(F)c(F)c3)n2)cc1Cl [55i] ; value = 6.94

So for O=C(NCc1ccc(Oc2cccc(N3CCCC3)c2)cc1)c1ncn(-c2cc(Cl)c(O)c(Cl)c2)n1 [69i] , the logged IC50 turned out to be 5.99

IC50 recorded for this compound, Oc1c(Cl)cc(-n2cnc(C(O)(c3cccc(Cl)c3)c3cccc(Cl)c3)n2)cc1Cl [53i] , is 4.27

IC50 in this record for COCCOCCOCCN(Cc1ccc(Cl)c(Cl)c1)C(=O)c1ncn(-c2cc(Cl)c(O)c(Cl)c2)n1 [114i] : 22.7

Cited source: patent US20100144733A1
